target: human GLP-1 receptor (human, UniProt P43220 24-463); assay: cell-based or functional assay
Entries and their GLP-1 receptor potency [EC50] pM 1% HSA values follow.
Entry rule: numbers only, all in pM.

## Task Look up GLP-1 receptor potency [EC50] pM 1% HSA for this binder: S{Beta-26}-[2-[2-[[2-[2-[2-[[2-[2-[2-[[(4S)-4-carboxy-4-(17-carboxyheptadecanoyl-amino)butanoyl]amino]ethoxy]ethoxy]acetyl]amino]ethoxy]ethoxy]acetyl]amino]-eth … (ligand, Cys26 of the GLP-1 part (GLP-1(7-37) numbering; residue 20 of the chain) S-alkylated with substituent Chem. 7) HGEGTFTSDVSSYLEEQAACEFIAWLVKGGGGAQPGAQPGAQPGAQPAHPIPDSSPLLQFGGQVRQRYLYTDDAQQTEAHLEIREDGTVGGAADQSPESLLQLKALKPGVIQILGVKTSRFLCQRPDGALYGSLHFDPEACSFRELLLEDGYNVYQSEAHGLPLHLPGQKSPHRDPAPRGPARFLPLPGLPPALPEPPGILAPQPPDVGSSDPLSLVGGSQGRSPSYAS
## Result 397

## Task # lookup: GLP-1 receptor potency [EC50] pM 1% HSA of S{Beta-27}-[2-[2-[[2-[2-[2-[[2-[2-[2-[[(4S)-4-carboxy-4-(17-carboxyheptadecanoyl-amino)butanoyl]amino]ethoxy]ethoxy]acetyl]amino]ethoxy]ethoxy]acetyl]amino]-eth … (ligand, Cys27 of the GLP-1 part (GLP-1(7-37) numbering; residue 21 of the chain) S-alkylated with substituent Chem. 7) HGEGTFTSDVSSYLEEQAAKCFIAWLVKGGGGAQPGAQPGAQPGAQPGAQPGAQPGAQPGAQPAHPIPDSSPLLQFGGQVRQRYLYTDDAQQTEAHLEIREDGTVGGAADQSPESLLQLKALKPGVIQILGVKTSRFLCQRPDGALYGSLHFDPEACSFRELLLEDGYNVYQSEAHGLPLHLPGQKSPHRDPAPRGPARFLPLPGLPPALPEPPGILAPQPPDVGSSDPLSLVGGSQGRSPSYES
## Result 66.6

## Task Request the reported GLP-1 receptor potency [EC50] pM 1% HSA associated with S{Beta-36}-[2-[2-[[2-[2-[2-[[2-[2-[2-[[(4S)-4-carboxy-4-(17-carboxyheptadecanoyl-amino)butanoyl]amino]ethoxy]ethoxy]acetyl]amino]ethoxy]ethoxy]acetyl]amino]-eth … (ligand, Cys36 of the GLP-1 part (GLP-1(7-37) numbering; residue 30 of the chain) S-alkylated with substituent Chem. 7) HGEGTFTSDVSSYLEEQAAREFIAWLVKGCGGAQPGAQPGAQPGAQPAHPIPDSSPLLQFGGQVRQRYLYTDDAQQTEAHLEIREDGTVGGAADQSPESLLQLKALKPGVIQILGVKTSRFLCQRPDGALYGSLHFDPEACSFRELLLEDGYNVYQSEAHGLPLHLPGQKSPHRDPAPRGPARFLPLPGLPPALPEPPGILAPQPPDVGSSDPLSLVGGSQGRSPSYES
## Result 394

More entries:
## Task Quick one: GLP-1 receptor potency [EC50] pM 1% HSA of S{Beta-27}-[2-[2-[[2-[2-[2-[[2-[2-[2-[[(4S)-4-carboxy-4-(17-carboxyheptadecanoyl-amino)butanoyl]amino]ethoxy]ethoxy]acetyl]amino]ethoxy]ethoxy]acetyl]amino]-eth … (ligand, Cys27 of the GLP-1 part (GLP-1(7-37) numbering; residue 21 of the chain) S-alkylated with substituent Chem. 7) HGEGTFTSDVSSYLEEQAAKCFIAWLVKGGGGAQPGAQPGAQPGAQPGAQPGAQPGAQPGAQPGAQPGAQPGAQPGAQPGAQPGAQPGAQPGAQPAHPIPDSSPLLQFGGQVRQRYLYTDDAQQTEAHLEIREDGTVGGAADQSPESLLQLKALKPGVIQILGVKTSRFLCQRPDGALYGSLHFDPEACSFRELLLEDGYNVYQSEAHGLPLHLPGQKSPHRDPAPRGPARFLPLPGLPPALPEPPGILAPQPPDVGSSDPLSLVGGSQGRSPSYES ?
## Result 103
